B1: library; numbered along this chain (parent)
chain: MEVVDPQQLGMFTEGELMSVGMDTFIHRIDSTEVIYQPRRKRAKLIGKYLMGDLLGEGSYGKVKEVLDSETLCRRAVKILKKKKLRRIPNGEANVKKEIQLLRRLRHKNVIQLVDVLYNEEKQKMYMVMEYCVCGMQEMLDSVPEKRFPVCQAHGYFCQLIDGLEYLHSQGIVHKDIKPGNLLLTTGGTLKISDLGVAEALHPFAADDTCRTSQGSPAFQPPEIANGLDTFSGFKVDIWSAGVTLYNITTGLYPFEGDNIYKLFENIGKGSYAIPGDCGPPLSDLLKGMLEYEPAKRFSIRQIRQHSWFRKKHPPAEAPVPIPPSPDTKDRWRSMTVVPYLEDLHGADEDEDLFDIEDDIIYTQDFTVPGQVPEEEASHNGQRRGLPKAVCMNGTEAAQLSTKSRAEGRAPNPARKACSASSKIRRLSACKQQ

Variants of: B1
assay comment: STK11 functional score (HeLa growth suppression), rescaled enrichment; synonymous median = 1, nonsense median = 0 (normalised score)
stated conditions: with HeLa; variant type: missense
measure name: STK11 functional score
// return just the number, without any unit appended

Before answering, review these 10 worked examples.
{"columns": ["variant name", "measure name", "experimental result"],
 "data": [
  ["Y126V", "STK11 functional score", 0.762],
  ["M335L", "STK11 functional score", 1.03],
  ["G15T", "STK11 functional score", 1.68],
  ["K388Y", "STK11 functional score", 1.07],
  ["M289Q", "STK11 functional score", 0.0869],
  ["W239L", "STK11 functional score", 0.325],
  ["L245Y", "STK11 functional score", -0.0275],
  ["I192N", "STK11 functional score", 1.23],
  ["V128C", "STK11 functional score", 1.15],
  ["H202P", "STK11 functional score", 0.806]
]}

Challenge: Please look at this variant and report its STK11 functional score: Y126T
Response given: -0.0466

FYI, the data here is from the supplement of paper PMC12338614.
